Can you tell me TGI for the items I'm about to list?
System: UACC-62 melanoma
Test: NCI tumour cell line growth inhibition, 48 h

Q) Which TGI value belongs to NC1=C(c2nc(-c3ccccc3)cs2)C(c2ccc(Br)cc2)c2c(c3ccccc3oc2=O)O1 (stereo not drawn) ?
A) > 150 µg/mL

Q) What do you have for O=c1[nH]c(=O)c2cc(C3CC(O)C(CO)O3)ccc2[nH]1 (stereo not drawn) ?
A) > 100 µM

Q) // same read-out, input: CCCC/C=C1\CCC(C)(CN(C)C)C1=O (stereo not drawn)
A) > 100 µM

* * *

Exercise: for every item that follows, state its recorded TGI.
System: M14 melanoma
Experiment: NCI tumour cell line growth inhibition, 48 h
Where a SMILES comes first, the peptide text is derived from it. The star is where a group is joined. Ethyl(2-NMe3+) = C[N+](C)(C)CC*; Boc = CC(C)(C)OC(=O)*

Q) Query (compound): CC1=NN(C(=O)CC(=O)Nc2ccc(C)cc2)C(=O)C1N=Nc1ccc(S(=O)(=O)c2ccc(N=NC3C(=O)N(C(=O)CC(=O)Nc4ccc(C)cc4)N=C3C)cc2)cc1 (stereo unspecified) ; field requested: TGI
A) > 100 µM

Q) Now consider CN(C)CCNC(=O)c1cccc2[nH]c(-c3cccnc3)nc12 .
A) 43.8 µM

Q) Check O=C1C2C=CC(C2)C(c2ccc(O)cc2)N1O (stereo unspecified) too.
A) > 100 µM

Q) Try C[n+]1ccc(Nc2ccc(NC(=O)c3ccc(Nc4cc[n+](C)c5ccc([N+](=O)[O-])cc45)cc3[N+](=O)[O-])cc2)cc1 next.
A) > 100 µM

Q) Further, for c1ccc2c(c1)cc1c3[nH]c4ccccc4c3ccn21 ?
A) > 10 µM

Q) Would you kindly repeat that for OC(c1cc(-c2ccc(Cl)cc2)nc2ccccc12)C1CCCCN1 (stereo unspecified) ?
A) 3.37 µM

Q) Then Cc1ccc2c(c1)CC1(Cc3c(C)cccc3C1=O)C2=O (stereo unspecified) ?
A) > 100 µM

Q) Please give the result for CC1=NN(C(=O)CC(=O)NC(=O)CC(=O)Nc2ccccc2F)C(=O)C1N=Nc1ccc([N+](=O)[O-])cc1 (stereo unspecified) too.
A) > 100 µM

Q) Next: O=C(O)CCSC(=O)Nc1ccccc1F
A) > 100 µM

Q) And the next one, CN1CCCOC(c2ccc([N+](=O)[O-])cc2)O1 (stereo unspecified) ?
A) > 100 µM

Q) Another compound: CC(NC(=O)C(Cc1ccc(OCC[N+](C)(C)C)cc1)NC(=O)OC(C)(C)C)C(=O)NC(Cc1ccccc1)C(=O)NCC(N)=O (stereo unspecified) (Boc-Y(Ethyl(2-NMe3+))AFG-NH2; configuration not given here)
A) > 100 µM

* * *

What TGI was measured for each of the following?
System: CCRF-CEM leukemia
Assay: NCI tumour cell line growth inhibition, 48 h

Q) TGI lookup needed for COCn1cnc2c(=O)n(-c3ccc(OC)cc3)c(=S)n(-c3ccc(OC)cc3)c21 , thanks.
A) > 100 µM

Q) Quick one: CC(C)=c1sc(=C(C)C)c2c1=NC(C)(C)N=2
A) > 100 µM

Q) # iterate: COC(=O)CCC1CCC(c2cc(F)ccc2F)(S(=O)(=O)c2ccc(Cl)cc2)CC1 (stereo not drawn)
A) > 100 µM
